- Tested on: PPARg DBDmut:RXRa IVT, anti-PPARg (DBD mutation: PPARg1 K132A/R137A, NR concentration 270 nM, RXRa partner concentration 90 nM)
- Assay Comment: PBM binding z-score (relative to random genomic background probes); higher = stronger binding; sequences stand for … in GC…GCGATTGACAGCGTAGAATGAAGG
Measured Metric: PBM binding z-score
One number for each entry.

# count of solved cases: 10
INSERT INTO measurements (query_sequence, recorded_result) VALUES
  ('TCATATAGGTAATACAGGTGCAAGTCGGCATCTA', 1.02),
  ('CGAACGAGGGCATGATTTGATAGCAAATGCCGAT', -0.0165),
  ('TCTTGTAGATCAAAGGTTAACAAAGCCGAAGCCT', 1.04),
  ('TCAGATAGGTAAATGCTAGGTGAAAGTCCGATCT', 0.761),
  ('ACTATAAGTTGACTTAGGGCAACCGATACGACGC', 0.924),
  ('CCGACTGGCGCAAGGTTACCATAACGCACAGCCA', -1.08),
  ('ATACCAAGGTGATCGTGAGGTCGTGGATACTAAC', 0.414),
  ('TGTCGGAGGACACGAAAGGTCAGAGCTCGACATC', 0.729),
  ('GGAACGAGGGCAAAGTTGCTAGCATCTGTCGACG', 0.283),
  ('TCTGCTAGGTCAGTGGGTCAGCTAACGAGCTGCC', 0.364);

Each sequence below has a recorded value; state its PBM binding z-score.
1. CAAACTAGGTCAACGGTCAAAGTCGAGCCAACCA
2. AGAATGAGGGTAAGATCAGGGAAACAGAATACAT
3. CTCGAAAGGTCGATTGAGGTGAGTATACGGATAA
4. ATATGTAGGTTAGCTGGGGTCATTCATACTAGGC
5. ACCGAAAGGTCGAGGTGAGTATAGAGAAAGGGAA
6. TCATGTAGGTAATACAGGTGAAAGTCGGCATCTA

Return:
[1.94, 1.14, -0.148, 2.9, 0.276, 0.771]

Please state PBM binding z-score for every sequence in the list that follows.
1. CGTCCAAGGTCATAGGAGGTAAGTGAAGACAGAT
2. TGTCAAAGTTAAAAGGTAACGTAAGTATCCACAC
3. ACTATTAGTTGAGACGAGGGCAACCGTTAGGTTG
4. CCTTACGGGTCACTCCAGGTAATAGCATCGGAGT
5. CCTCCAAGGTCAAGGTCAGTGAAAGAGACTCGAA

Return:
0.738
1.24
0.0213
0.64
0.309

---

- System: PPARg:RXRa (NR concentration 180 nM, RXRa partner concentration 90 nM)
- Assay Comment: PBM binding z-score (relative to random genomic background probes); higher = stronger binding; sequences stand for … in GC…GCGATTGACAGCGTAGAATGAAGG
Quick rule: PBM binding z-score of at least 2 means Y, below that means N.

INSERT INTO assay_data (query_sequence, assigned_label) VALUES
  ('AGACCGAGGGCACGCTGAGTTGATAGCAGAGTAG', 'N'),
  ('AGTCAAAGTTAACTAGGTAACGTAAGATTCAGCT', 'Y'),
  ('ATCTCTAGGTAACAAGTTCAGAGAAAGAGAGGAC', 'N');

Enquiry: Does TGTCAAAGTTCAAAGGTAAGGTAAGTATCCACAC have a reported PBM binding z-score of at least 2?
Return: Y

Enquiry: Moving on to the next sequence: ATATGTAGGTTAGCAGGGGTCATTCAGACTAGGC
Return: Y

Enquiry: Same question, AGTCAAAGTTCACTAGGTAACGTAAGATTCAGCT this time
Return: Y

Enquiry: Same lookup for AGTCAAAGTTCATCTAGGAAACGTAAGATATGCT , please.
Return: Y

Enquiry: Now the same for CTCGAAAGGTCGGTTGAGGAGAGTATACGGATAA
Return: N

Enquiry: Also check TCTGCTTGGTCAGTTGGTCAGCTAACGAGCTGCC
Return: N
